assay-target: LRRK2 kinase (Homo sapiens, UniProt Q5S007)
Sequence (Q5S007 with tags, fused parts or gaps): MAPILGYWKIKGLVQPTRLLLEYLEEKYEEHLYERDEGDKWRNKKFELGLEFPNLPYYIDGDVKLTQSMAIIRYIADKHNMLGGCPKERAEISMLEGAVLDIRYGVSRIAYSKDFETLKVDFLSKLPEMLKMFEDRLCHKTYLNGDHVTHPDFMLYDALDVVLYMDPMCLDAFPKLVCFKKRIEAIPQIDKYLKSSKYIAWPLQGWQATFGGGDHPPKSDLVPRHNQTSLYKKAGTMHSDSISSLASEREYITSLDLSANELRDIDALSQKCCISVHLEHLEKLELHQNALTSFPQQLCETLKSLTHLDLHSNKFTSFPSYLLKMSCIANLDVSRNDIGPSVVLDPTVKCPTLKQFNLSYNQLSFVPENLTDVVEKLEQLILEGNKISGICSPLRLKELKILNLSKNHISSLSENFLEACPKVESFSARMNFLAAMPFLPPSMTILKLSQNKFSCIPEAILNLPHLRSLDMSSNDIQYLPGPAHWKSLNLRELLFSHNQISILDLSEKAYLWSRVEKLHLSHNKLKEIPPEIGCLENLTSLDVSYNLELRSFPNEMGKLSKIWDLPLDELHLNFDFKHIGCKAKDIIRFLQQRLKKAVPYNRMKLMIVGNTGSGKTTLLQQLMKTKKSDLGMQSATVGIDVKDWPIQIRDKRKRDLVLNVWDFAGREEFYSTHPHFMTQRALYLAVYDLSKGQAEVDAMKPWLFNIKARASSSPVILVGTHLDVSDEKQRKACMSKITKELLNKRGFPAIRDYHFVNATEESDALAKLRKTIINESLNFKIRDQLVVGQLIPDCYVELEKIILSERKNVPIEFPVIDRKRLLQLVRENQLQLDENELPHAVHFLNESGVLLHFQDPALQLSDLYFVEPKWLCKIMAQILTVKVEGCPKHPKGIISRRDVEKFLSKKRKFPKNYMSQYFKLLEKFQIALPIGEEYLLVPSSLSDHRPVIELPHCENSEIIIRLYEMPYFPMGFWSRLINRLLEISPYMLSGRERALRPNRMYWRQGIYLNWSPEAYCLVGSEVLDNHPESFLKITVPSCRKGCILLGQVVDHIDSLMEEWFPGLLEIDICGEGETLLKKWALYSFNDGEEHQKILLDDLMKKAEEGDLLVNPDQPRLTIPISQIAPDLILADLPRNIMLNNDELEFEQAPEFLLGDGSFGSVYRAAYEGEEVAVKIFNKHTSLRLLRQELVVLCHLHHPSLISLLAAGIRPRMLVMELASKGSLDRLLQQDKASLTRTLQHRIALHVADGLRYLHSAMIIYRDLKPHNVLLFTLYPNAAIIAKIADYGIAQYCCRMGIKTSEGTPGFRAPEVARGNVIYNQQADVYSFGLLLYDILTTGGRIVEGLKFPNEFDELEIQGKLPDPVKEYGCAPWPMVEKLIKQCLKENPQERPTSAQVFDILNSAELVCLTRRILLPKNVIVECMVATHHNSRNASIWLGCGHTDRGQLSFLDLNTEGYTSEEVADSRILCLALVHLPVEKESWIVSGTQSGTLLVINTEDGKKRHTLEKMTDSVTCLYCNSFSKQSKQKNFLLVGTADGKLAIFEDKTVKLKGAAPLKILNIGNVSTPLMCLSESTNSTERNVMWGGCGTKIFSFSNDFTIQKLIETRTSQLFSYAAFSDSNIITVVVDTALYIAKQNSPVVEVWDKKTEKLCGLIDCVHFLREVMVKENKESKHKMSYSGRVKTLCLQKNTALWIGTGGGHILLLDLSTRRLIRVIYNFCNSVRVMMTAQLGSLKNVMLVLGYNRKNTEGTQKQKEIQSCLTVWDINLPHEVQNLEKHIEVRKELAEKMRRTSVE
pIC50: −log10 of the molar value.
# pIC50 values compiled below

Cc1cc(N2CCN(C)CC2)ccc1Nc1ncc(C(F)(F)F)c(NCCCN2CCCC2=O)n1
7.00 to 9.00

# lookup: pIC50 of CN1CCN(c2ccc(Nc3ncc(C(F)(F)F)c(NCCCN4CCOCCC4=O)n3)c(Cl)c2)CC1
7.00 to 9.00

Entry under review: CCc1cc(N2CC3CCC(C2)N3C)ccc1Nc1ncc(C(F)(F)F)c(NCCCN2CCCCC2=O)n1 . Reported pIC50?
6.52 to 7.00

----------
As an illustration, consider measured IC50 for molecules on LRRK2 kinase (Homo sapiens, UniProt Q5S007).

These solved cases illustrate the format of a correct answer.
CCc1cc(N2CCN(C)CC2)ccc1Nc1ncc(Br)c(NCCCN2CCOCCC2=O)n1 [Example 76]
100 to 300 nM
CN1C[C@@H]2C[C@H]1CN2c1ccc(Nc2ncc(C(F)(F)F)c(NCCCN3CCCOC3=O)n2)c(C2CC2)c1 [Example 117]
1 to 100 nM

Record CN1CCN(c2ccc(Nc3ncc(C(F)(F)F)c(NCCCN4CCCOC4=O)n3)c(C3CC3)c2)CC1 [Example 41] : what is its IC50 with LRRK2 kinase (Homo sapiens, UniProt Q5S007)?
1 to 100 nM
